- Test system: MS2 coat protein
- method notes: apparent KD of MS2 coat protein; designed switch direction (-1 OFF switch, 1 ON switch): -1; higher = weaker reporter binding
- study conditions: input ligand: none
# if value of apparent KD of MS2 coat protein reaches 30 nM, tag Yes; if it stays below, tag No

Answered examples (2):
>>> answer_label("UUAAAUCAUGUAGGAUAUGCGUGGCGAAGCUAUGCAGAAGGACAUGAGGAUCACCCAUGUUCUUCGGUCUGCGUACAGAUCGAA [JL ENG1 1.07] (Eterna round: R96, puzzle: Exclusion NG 1)")
"No"
>>> answer_label("CCGGAACAUGAGGAUCACCCAUGUCAGGAUAUCUCAAAAUCGUCGAAAGACGAUAACAAGAGAAGGGACACCGG [Eli x1 4.30] (Eterna round: R97, puzzle: Exclusion 1)")
"No"

Shifting focus to the sequence that follows.
Check if apparent KD of MS2 coat protein >= 30 nM (inclusive). Item: CCGACGUGAGGAUAUCCAUCUGGAUCAGACAAGAUCCUGAUGGAGAAGGCACAUGAGGAUCACCCAUGUUACGG [Mat - Exclusion 4 - Eli Mod - D59] (Eterna round: R97, puzzle: Exclusion 4)
Yes
